Data provenance is ChEMBL document CHEMBL2311421.

Assay: Inhibition of Swiss mouse liver glucosidase
Details: read-out: IC50
One threshold, 20 µM, splits the recorded IC50 values: lower ones are T, equal or higher ones are F.

Molecule	Class Label
CCOc1ccc2nc(N/C(=C\C(=O)c3ccc(Cl)cc3)SC)sc2c1	T
CS/C(=C/C(=O)c1ccc(C)cc1)Nc1nc2ccccc2s1	F
CS/C(=C/C(=O)c1ccc(Br)cc1)Nc1nc2cc(C)c(C)cc2s1	T
CCOc1ccc2nc(N/C(=C\C(=O)c3ccc(C)cc3)SC)sc2c1	F
CCOc1ccc2nc(N/C(=C\C(=O)c3ccc(OC)cc3)SC)sc2c1	F
CS/C(=C/C(=O)c1ccc(F)cc1)Nc1nc2ccccc2s1	F
CCOc1ccc2nc(N/C(=C\C(=O)c3ccc(F)cc3)SC)sc2c1	F
CS/C(=C/C(=O)c1ccc(Cl)cc1)Nc1nc2ccccc2s1	T
C[C@H]1O[C@H](O[C@H]2[C@H](O)[C@@H](O)[C@@H](O[C@H]3[C@H](O)[C@@H](O)C(O)O[C@@H]3CO)O[C@@H]2CO)[C@H](O)[C@@H](O)[C@@H]1N[C@H]1C=C(CO)[C@@H](O)[C@H](O)[C@H]1O (stereo partly specified) [ACARBOSE]	F
CS/C(=C/C(=O)c1ccc(Br)cc1)Nc1nc2ccccc2s1	T
CCOc1ccc2nc(N/C(=C\C(=O)c3ccc(Br)cc3)SC)sc2c1	T

----------
Experiment: Inhibition of Swiss mouse intestinal glucosidase
Conditions: read-out: IC50
One threshold, 30 µM, splits the recorded IC50 values: lower ones are true (1), equal or higher ones are false (0).

Compound Structure String	Class Label
CS/C(=C/C(=O)c1ccc(Br)cc1)Nc1nc2cc(C)c(C)cc2s1	true (1)
CS/C(=C/C(=O)c1ccc(F)cc1)Nc1nc2ccccc2s1	false (0)
CCOc1ccc2nc(N/C(=C\C(=O)c3ccc(Br)cc3)SC)sc2c1	false (0)
CCOc1ccc2nc(N/C(=C\C(=O)c3ccc(F)cc3)SC)sc2c1	false (0)

----------
Test: Inhibition of Swiss mouse pancreatic glucosidase
Here the recorded IC50 is given for each entry.

Molecule	Operator Symbol	IC50 [µM]
CS/C(=C/C(=O)c1ccc(Br)cc1)Nc1nc2ccccc2s1	=	21.7
CCOc1ccc2nc(N/C(=C\C(=O)c3ccc(Cl)cc3)SC)sc2c1	=	26.5
CCOc1ccc2nc(N/C(=C\C(=O)c3ccc(F)cc3)SC)sc2c1	=	23.5
CS/C(=C/C(=O)c1ccc(Br)cc1)Nc1nc2cc(C)c(C)cc2s1	=	24.7
CCOc1ccc2nc(N/C(=C\C(=O)c3ccc(OC)cc3)SC)sc2c1	=	23.2
CS/C(=C/C(=O)c1ccc(F)cc1)Nc1nc2ccccc2s1	=	33.6
CS/C(=C/C(=O)c1ccc(C)cc1)Nc1nc2ccccc2s1	=	26.9
CCOc1ccc2nc(N/C(=C\C(=O)c3ccc(C)cc3)SC)sc2c1	=	19.9
C[C@H]1O[C@H](O[C@H]2[C@H](O)[C@@H](O)[C@@H](O[C@H]3[C@H](O)[C@@H](O)C(O)O[C@@H]3CO)O[C@@H]2CO)[C@H](O)[C@@H](O)[C@@H]1N[C@H]1C=C(CO)[C@@H](O)[C@H](O)[C@H]1O (some centres not stated) [ACARBOSE]	>	100
CCOc1ccc2nc(N/C(=C\C(=O)c3ccccc3)SC)sc2c1	=	18
CCOc1ccc2nc(N/C(=C\C(=O)c3ccc(Br)cc3)SC)sc2c1	=	20.9
CS/C(=C/C(=O)c1ccc(Cl)cc1)Nc1nc2ccccc2s1	=	32.4
